B1: HDV Ribozyme (parent)
chain: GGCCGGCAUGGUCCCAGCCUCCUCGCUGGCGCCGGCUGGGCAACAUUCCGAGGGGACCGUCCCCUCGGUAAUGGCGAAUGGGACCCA

Variants of: B1
Assay: self-cleavage, relative activity (ratio to wild type); higher = more cleavage; co-transcriptional
Reported self-cleavage is given for each of the following variants.
# respond with the number and nothing more

mutation code	self-cleavage
G35C G80A	0.212
G10U A56C	0.878

The variant identified as C24U G76U registered its self-cleavage at 0.917

Briefly, self-cleavage measured for C26G G39A : 0.18

What the record says about U20G G25U : self-cleavage is 0.166

U20A C22U has a reported self-cleavage of 0

get_value(item= U37C U65G , readout=self-cleavage) returns 0.906

Sample C48A C49U ; self-cleavage observed: 1.23

The variant C63G C84G showed self-cleavage equal to 0.306
